- Experimental system: CYP2D6 (Homo sapiens)
- Sequence (P10635 whole entry): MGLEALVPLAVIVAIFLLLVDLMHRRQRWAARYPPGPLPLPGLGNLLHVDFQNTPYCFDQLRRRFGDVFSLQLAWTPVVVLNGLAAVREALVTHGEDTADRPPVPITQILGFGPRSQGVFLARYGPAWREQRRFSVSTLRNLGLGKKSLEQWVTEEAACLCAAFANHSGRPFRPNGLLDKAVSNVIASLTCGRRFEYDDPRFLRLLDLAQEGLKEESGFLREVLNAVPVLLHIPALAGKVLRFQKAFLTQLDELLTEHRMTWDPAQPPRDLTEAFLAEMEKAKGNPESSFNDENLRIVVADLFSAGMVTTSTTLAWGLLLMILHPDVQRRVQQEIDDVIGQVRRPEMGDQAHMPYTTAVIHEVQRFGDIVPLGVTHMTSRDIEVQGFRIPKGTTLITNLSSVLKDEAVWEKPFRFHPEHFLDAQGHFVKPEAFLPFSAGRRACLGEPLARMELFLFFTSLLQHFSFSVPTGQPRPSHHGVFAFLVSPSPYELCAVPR
- Protocol: Inhibition of CYP2D6
- Format: ADME
Examples of molecules with documented IC90 follow.

{"columns": ["Record smiles", "IC90"],
 "data": [
  ["COC(=O)N[C@H](C(=O)N1CCC[C@H]1c1nc(F)c(-c2ccc(-c3ccc(-c4[nH]c([C@@H]5CCCN5C(=O)[C@@H](NC(=O)OC)C(C)C)nc4F)cc3)cc2)[nH]1)C(C)C", "> 100 µM"],
  ["COC(=O)N[C@H](C(=O)N1CCC[C@H]1c1nc(Cl)c(-c2ccc(-c3ccc(-c4[nH]c([C@@H]5CCCN5C(=O)[C@@H](NC(=O)OC)C(C)C)nc4Cl)cc3)cc2)[nH]1)C(C)C", "> 100 µM"]
]}

---

- Test system: Liver microsomes
- Protocol: Half life in human liver microsomes at 1 uM measured 5 to 60 mins post dose by LC-MS/MS nethod
- Assay type: ADME, Microsome

{"columns": ["Record smiles", "Unit text", "t1/2"],
 "data": [
  ["COC(=O)N[C@H](C(=O)N1CCC[C@H]1c1nc(F)c(-c2ccc(-c3ccc(-c4[nH]c([C@@H]5CCCN5C(=O)[C@@H](NC(=O)OC)C(C)C)nc4F)cc3)cc2)[nH]1)C(C)C", "h", 2.063],
  ["COC(=O)N[C@H](C(=O)N1CCC[C@H]1c1nc(-c2ccc(-c3ccc(-c4c[nH]c([C@@H]5CCCN5C(=O)[C@@H](NC(=O)OC)C(C)C)n4)cc3)cc2)c[nH]1)C(C)C", "h", 0.938],
  ["COC(=O)N[C@H](C(=O)N1CCC[C@H]1c1nc(Br)c(-c2ccc(-c3ccc(-c4[nH]c([C@@H]5CCCN5C(=O)[C@@H](NC(=O)OC)C(C)C)nc4Br)cc3)cc2)[nH]1)C(C)C", "h", 1.12],
  ["COC(=O)N[C@H](C(=O)N1CCC[C@H]1c1nc(Cl)c(-c2ccc(-c3ccc(-c4[nH]c([C@@H]5CCCN5C(=O)[C@@H](NC(=O)OC)C(C)C)nc4Cl)cc3)cc2)[nH]1)C(C)C", "h", 1.992],
  ["COC(=O)N[C@H](C(=O)N1CCC[C@H]1c1nc(I)c(-c2ccc(-c3ccc(-c4[nH]c([C@@H]5CCCN5C(=O)[C@@H](NC(=O)OC)C(C)C)nc4I)cc3)cc2)[nH]1)C(C)C", "h", 0.642]
]}

---

- Test system: Vero
- Protocol: Cytotoxicity against african green monkey Vero cells
- Assay type: cell-based
- Assay conditions: chlorocebus sabaeus
Examples of compounds with documented CC50 follow.
Recorded metric: CC50

{"columns": ["Record smiles", "Recorded metric", "Recorded value"],
 "data": [
  ["COC(=O)N[C@H](C(=O)N1C[C@H](N=[N+]=[N-])C[C@H]1c1nc(Cl)c(-c2ccc(-c3ccc(-c4[nH]c([C@@H]5C[C@@H](N=[N+]=[N-])CN5C(=O)[C@@H](NC(=O)OC)C(C)C)nc4Cl)cc3)cc2)[nH]1)C(C)C", "CC50", "> 100 µM"],
  ["COC(=O)N[C@H](C(=O)N1CCC[C@H]1c1nc(-c2cccs2)c(-c2ccc(-c3ccc(-c4[nH]c([C@@H]5CCCN5C(=O)[C@@H](NC(=O)OC)C(C)C)nc4-c4cccs4)cc3)cc2)[nH]1)C(C)C", "CC50", "> 100 µM"],
  ["COC(=O)N[C@H](C(=O)N1C[C@@H](n2cc(-c3ccccc3)nn2)C[C@H]1c1ncc(-c2ccc(-c3ccc(-c4cnc([C@@H]5C[C@H](n6cc(-c7ccccc7)nn6)CN5C(=O)[C@@H](NC(=O)OC)C(C)C)[nH]4)cc3)cc2)[nH]1)C(C)C", "CC50", "> 100 µM"],
  ["COC(=O)N[C@H](C(=O)N1CCC[C@H]1c1nc(Cl)c(-c2ccc(-c3ccc(-c4[nH]c([C@@H]5CCCN5C(=O)[C@@H](NC(=O)OC)C(C)C)nc4Cl)cc3)cc2)[nH]1)C(C)C", "CC50", "100 µM"],
  ["COC(=O)N[C@H](C(=O)N1CCC[C@H]1c1nc(-c2ccco2)c(-c2ccc(-c3ccc(-c4[nH]c([C@@H]5CCCN5C(=O)[C@@H](NC(=O)OC)C(C)C)nc4-c4ccco4)cc3)cc2)[nH]1)C(C)C", "CC50", "> 100 µM"]
]}

---

Examples of compounds with documented CC50 follow.
- Protocol: Cytotoxicity against human HuH7 cells
- Format: cell-based, Huh-7

{"columns": ["Record smiles", "CC50"],
 "data": [
  ["COC(=O)N[C@H](C(=O)N1C[C@H](n2cc(C(=O)OC)nn2)C[C@H]1c1ncc(-c2ccc(-c3ccc(-c4cnc([C@@H]5C[C@@H](n6cc(C(=O)OC)nn6)CN5C(=O)[C@@H](NC(=O)OC)C(C)C)[nH]4)cc3)cc2)[nH]1)C(C)C", "> 1000 nM"],
  ["COC(=O)N[C@H](C(=O)N1C[C@H](N=[N+]=[N-])C[C@H]1c1ncc(-c2ccc(-c3ccc(-c4cnc([C@@H]5C[C@@H](N=[N+]=[N-])CN5C(=O)[C@@H](NC(=O)OC)C(C)C)[nH]4)cc3)cc2)[nH]1)C(C)C", "> 1000 nM"],
  ["COC(=O)N[C@H](C(=O)N1CCC[C@H]1c1nc(Br)c(-c2ccc(-c3ccc(-c4[nH]c([C@@H]5CCCN5C(=O)[C@@H](NC(=O)OC)C(C)C)nc4Br)cc3)cc2)[nH]1)C(C)C", "> 1000 nM"]
]}

---

- Protocol: Cytotoxicity against human PBMC cells
- Type: cell-based
- Assay conditions: PBMC cells
Recorded metric: CC50

{"columns": ["Record smiles", "Recorded metric", "Recorded value"],
 "data": [
  ["COC(=O)N[C@H](C(=O)N1C[C@H](N=[N+]=[N-])C[C@H]1c1ncc(-c2ccc(-c3ccc(-c4cnc([C@@H]5C[C@@H](N=[N+]=[N-])CN5C(=O)[C@@H](NC(=O)OC)C(C)C)[nH]4)cc3)cc2)[nH]1)C(C)C", "CC50", "> 100 µM"]
]}

---

Examples of molecules with documented CC50 follow.
- Tested on: CCRF-CEM
- Protocol: Cytotoxicity against human CEM cells
- Type: cell-based

{"columns": ["Record smiles", "CC50"],
 "data": [
  ["COC(=O)N[C@H](C(=O)N1C[C@H](n2cc(-c3ccccc3)nn2)C[C@H]1c1ncc(-c2ccc(-c3ccc(-c4cnc([C@@H]5C[C@@H](n6cc(-c7ccccc7)nn6)CN5C(=O)[C@@H](NC(=O)OC)C(C)C)[nH]4)cc3)cc2)[nH]1)C(C)C", "> 100 µM"],
  ["COC(=O)N[C@H](C(=O)N1CCC[C@H]1c1nc(-c2cccs2)c(-c2ccc(-c3ccc(-c4[nH]c([C@@H]5CCCN5C(=O)[C@@H](NC(=O)OC)C(C)C)nc4-c4cccs4)cc3)cc2)[nH]1)C(C)C", "> 100 µM"],
  ["COC(=O)N[C@H](C(=O)N1C[C@@H](n2cc(C(=O)OC)nn2)C[C@H]1c1ncc(-c2ccc(-c3ccc(-c4cnc([C@@H]5C[C@H](n6cc(C(=O)OC)nn6)CN5C(=O)[C@@H](NC(=O)OC)C(C)C)[nH]4)cc3)cc2)[nH]1)C(C)C", "> 100 µM"]
]}
